- System: large crabgrass
- experimental_protocol: Test B pre-/postemergence herbicide test
- Type: in vivo, Digitaria sanguinalis
- measurement_setup: postemergence, 500 g ai/ha; scale 0 to 100, 0 is no effect, 100 is complete control
I would appreciate it if you labelled entries 1 when Crabgrass, Large plant response rating is 10 or higher, otherwise 0.

CCn1nc(C(C)(C)C)cc1C(=O)Nc1cccc(OC(F)F)c1 [Compound 332] ... 1

## Task Check the entry CCOC(=O)c1cccc(NC(=O)c2nn(C(C)(C)CC)nc2CC)c1 [Compound 375] : does Crabgrass, Large plant response rating equal or exceed 10?
## Result 1

## Task Answer whether Crabgrass, Large plant response rating of CCn1nc(C(C)(C)C)cc1C(=O)Nc1cc(OC)ccc1F [Compound 347] is greater than or equal to 10.
## Result 0

## Task Does the reported Crabgrass, Large plant response rating for CCC1=NN(C(C)(C)C)CC1C(=O)Nc1cc(C(=O)N(C)C)ccc1F (racemic) [Compound 343] fall at or above the 10 mark?
## Result 1

## Task Has CCn1nc(C(C)(C)C)cc1C(=O)Nc1cc(C(=O)N(C)C)c(F)cc1F [Compound 270] a recorded Crabgrass, Large plant response rating greater than or equal to 10?
## Result 0

* * *

- System: mustard
- experimental_protocol: Test E pre-/postemergence herbicide test
- Type: in vivo, Brassica nigra
- measurement_setup: Preemergence; 250 g ai/ha; scale 0 (no effect) to 100 (complete control)
In this section, each of the molecules is paired with its reported Plant response rating, Black Mustard.
// return a plain number; no unit text

CCn1nc(C(C)(C)C)cc1C(=O)Nc1cc(C(=S)N(C)C)ccc1F [Compound 294] ... 100
Cc1nn(C(C)(C)C)nc1C(=O)Nc1cccc(C(=O)N2CC=CC2)c1 [Compound 393] ... 95
CCc1nn(C(C)(C)C)nc1C(=O)Nc1cccc(C(=O)N(C)CC)c1 [Compound 384] ... 85
CCn1nc(C(C)(C)C)cc1C(=O)Nc1cccc(C(N)=O)n1 [Compound 162] ... 80

# evaluate next
## Task Complete the entry with Plant response rating, Black Mustard for CCc1nn(C(C)(C)C)nc1C(=O)Nc1cccc(C(=S)N(C)C)c1 [Compound 395]
## Result 90

* * *

Form field: Plant response rating, Foxtail, Giant (one value per entry).
- System: giant foxtail
- experimental_protocol: Test C pre-/postemergence herbicide test
- Assay type: in vivo, Setaria faberi
- measurement_setup: 62 g ai/ha; preemergence; scale 0 to 100
Format: numeric value only, no unit, no commentary.

Consider the worked cases shown below.
CCNC(=O)c1cccc(NC(=O)c2sc(C(C)(C)C)nc2CC)n1 [Compound 213] ... 30
Cc1nn(C(C)(C)C)nc1C(=O)Nc1cccc(C(=O)N2CC=CC2)c1 [Compound 393] ... 70
CCNC(=O)c1cccc(NC(=O)c2sc(C(C)(C)C)nc2CC)c1 [Compound 210] ... 0
CC(=NO)c1cccc(NC(=O)c2sc(C(C)(C)C)nc2C)c1 [Compound 195] ... 0
CCn1nc(C(C)(C)C)cc1C(=O)Nc1cccc(OC(F)F)c1 [Compound 332] ... 0

## Task Give Plant response rating, Foxtail, Giant for the following molecule: CCOC(=O)c1cccc(NC(=O)c2nn(C(C)(C)CC)nc2CC)c1 [Compound 375]
## Result 70
